- Test system: NCI-H1975
- Test Method Notes: MTT assay, cell viability after 72 h
- Assay type: cell-based, human
- Experimental Context: Homo sapiens, NCI-H1975, 72 h, read-out: IC50 (at day 3)
Experimental Readout: IC50 (µM)
// return numeric value only (unit: µM, not printed)

[[record]]
compound = "c1ccc2cc(Cn3c[n+](Cc4ccc5ccccc5c4)c4ccccc43)ccc2c1 [Compound 13]"
experimental_readout = "IC50"
observed = 4


**Query** Recall the reported IC50 of CC(C)n1c[n+](Cc2ccc3ccccc3c2)c(Cl)c1Cl.[Br-] [Compound 3] on NCI-H1975 and write it down.
**Result** 20

**Query** Write down measured IC50 (NCI-H1975) for this compound. Clc1c(Cl)[n+](Cc2ccccc2)cn1CCc1cccc2ccccc12 [Compound 19]
**Result** 14

**Query** Report measured IC50 on NCI-H1975; entry: CCCCCCn1c[n+](Cc2ccc3ccccc3c2)c(Cl)c1Cl.[Br-] [Compound 6]
**Result** 5

**Query** State the measured IC50 (NCI-H1975) of CCCCn1c[n+](Cc2ccc3ccccc3c2)c(Cl)c1Cl.[Br-] [Compound 4]
**Result** 10

**Query** Identify measured IC50 obtained with NCI-H1975 for Clc1c(Cl)[n+](CCc2cccc3ccccc23)cn1CCc1cccc2ccccc12.[Br-] [Compound 17] .
**Result** 8

**Query** Provide IC50, system NCI-H1975, entry Clc1c(Cl)[n+](Cc2ccc3ccccc3n2)cn1Cc1ccc2ccccc2c1.[Br-] [Compound 23]
**Result** 5

**Query** # return IC50 for Clc1c(Cl)[n+](Cc2ccc3ccccc3c2)cn1CCc1cccc2ccccc12.[Br-] [Compound 18] , test system: NCI-H1975
**Result** 6

---

- System: HCC827
- Test Method Notes: MTT assay, cell viability after 72 h
- Format: cell-based, human
- Experimental Context: Homo sapiens, HCC827, 72 h, read-out: IC50 (at day 3)
Experimental Readout: pIC50
# reply with the number alone; pIC50 is -log10 of concentration in mol/L

[[record]]
compound = "Clc1c(Cl)[n+](Cc2ccc3ccccc3n2)cn1Cc1ccc2ccccc2c1.[Br-] [Compound 23]"
observed = 5.05


**Query** Give a short answer stating reported pIC50 for Clc1c(Cl)[n+](Cc2ccc3ccccc3c2)cn1CCc1cccc2ccccc12.[Br-] [Compound 18] .
**Result** 5.15

**Query** Using known records, supply pIC50 for Cn1c(=O)c2c(ncn2Cc2ccc3ccccc3c2)n(C)c1=O [Compound 14]
**Result** 4.55

---

- Tested on: NCI-H1975
- Test Method Notes: MTT assay, cell viability after 72 h
- Format: cell-based, human
- Experimental Context: Homo sapiens, NCI-H1975, 72 h, read-out: IC50 (at day 3)
Listing of entries alongside the reported pIC50.
// scale note: pIC50 = -log10(conc_M); give the bare number

# count of solved cases: 3
[[record]]
input_smiles = "Clc1c(Cl)[n+](CCc2ccc3ccccc3c2)cn1CCc1ccc2ccccc2c1"
experimental_readout = "pIC50"
observed = 5.10

[[record]]
input_smiles = "CCCCCCCCCCCCn1c[n+](Cc2ccc3ccccc3c2)c(Cl)c1Cl"
experimental_readout = "pIC50"
observed = 5.40

[[record]]
input_smiles = "Cn1c(=O)c2c(ncn2Cc2ccc3ccccc3c2)n(C)c1=O"
experimental_readout = "pIC50"
observed = 4.92


Next:
**Query** Give pIC50 for `CCCCCCCn1c[n+](Cc2ccc3ccccc3c2)c(Cl)c1Cl`
**Result** 5.40

---

- Tested on: NCI-H1975
- Test Method Notes: MTT assay, cell viability after 72 h
- Format: cell-based, human
- Experimental Context: Homo sapiens, NCI-H1975, 72 h, read-out: IC50 (at day 3)
Attribute: pIC50
Note on units: pIC50 is unitless, being -log10 of a concentration expressed in mol/L.

**Query** Could you please provide reported pIC50 for `Clc1c(Cl)[n+](Cc2ccc3ccccc3c2)cn1Cc1ccc2ccccc2c1.[Br-]` ? Thanks!
**Result** 5.22

**Query** Provide measured pIC50 value, entry: `CCCCCCCCCn1c[n+](Cc2ccc3ccccc3c2)c(Cl)c1Cl.[Br-]`
**Result** 5.52

**Query** Output pIC50 of `CCCn1c[n+](Cc2ccc3ccccc3c2)c(Cl)c1Cl.[Br-]`
**Result** 4.66

**Query** Supply reported pIC50 belonging to this compound: `Clc1c(Cl)[n+](Cc2ccc3ccccc3c2)cn1CCc1ccc2ccccc2c1`
**Result** 5.15

**Query** Return pIC50 for the following compound: `[Br-].c1ccc2cc(Cn3cc[n+](Cc4ccc5ccccc5c4)c3)ccc2c1`
**Result** 5.22

**Query** Input `CCCCCn1c[n+](Cc2ccc3ccccc3c2)c(Cl)c1Cl.[Br-]` , output reported pIC50.
**Result** 4.92

**Query** Give recorded pIC50. `Clc1c(Cl)[n+](Cc2ccc3ccccc3c2)cn1Cc1ccccc1`
**Result** 4.92

---

Some molecules, each annotated with its measured log10 solubility.
- Test Method Notes: Water solubility from a filtered saturated solution, by weight
- Type: physicochemical
- Experimental Context: water, thermodynamic from solid
Parameter value (number): base-10 log of solubility in µg/mL.

[[record]]
molecule = "CCCCCn1c[n+](Cc2ccc3ccccc3c2)c(Cl)c1Cl.[Br-] [Compound 5]"
experimental_readout = "log10 solubility"
observed = 3.49


**Query** Using known records, supply log10 solubility for CCCCn1c[n+](Cc2ccc3ccccc3c2)c(Cl)c1Cl.[Br-] [Compound 4]
**Result** 3.76

**Query** Name the recorded log10 solubility of the molecule listed here: Clc1c(Cl)[n+](Cc2ccc3ccccc3c2)cn1CCc1cccc2ccccc12.[Br-] [Compound 18]
**Result** 2.00

**Query** Please give measured log10 solubility of the following entry: CC(C)n1c[n+](Cc2ccc3ccccc3c2)c(Cl)c1Cl.[Br-] [Compound 3]
**Result** 4.03

**Query** Quick one: give measured log10 solubility for CCn1c[n+](Cc2ccc3ccccc3c2)c(Cl)c1Cl.[Br-] [Compound 1]
**Result** 4.13

**Query** Consider the molecule CCCCCCCCCn1c[n+](Cc2ccc3ccccc3c2)c(Cl)c1Cl.[Br-] [Compound 8] . State its measured log10 solubility.
**Result** 2.48

**Query** # return recorded log10 solubility for input CCCn1c[n+](Cc2ccc3ccccc3c2)c(Cl)c1Cl.[Br-] [Compound 2]
**Result** 3.72

**Query** Indicate the recorded log10 solubility value for this molecule: Clc1c(Cl)[n+](Cc2ccc3ccccc3n2)cn1Cc1ccc2ccccc2c1.[Br-] [Compound 23]
**Result** 2.95

---

- Test system: HCC827
- Test Method Notes: MTT assay, cell viability after 72 h
- Format: cell-based, human
- Experimental Context: Homo sapiens, HCC827, 72 h, read-out: IC50 (at day 3)
Binary call on IC50 with cut-off 10 µM: strictly below means class 1, and equality or higher means class 0.

Answered cases to consult:
[[record]]
compound = "Clc1c(Cl)[n+](Cc2ccc3ccccc3c2)cn1Cc1ccc2ccccc2c1.[Br-] [IC23]"
class_assignment = "class 1"

[[record]]
compound = "Clc1ncn(CCc2ccc3ccccc3c2)c1Cl [Compound 20]"
class_assignment = "class 0"

[[record]]
compound = "CCn1c[n+](Cc2ccc3ccccc3c2)c(Cl)c1Cl.[Br-] [Compound 1]"
class_assignment = "class 0"

[[record]]
compound = "Clc1c(Cl)[n+](CCc2ccc3ccccc3c2)cn1CCc1ccc2ccccc2c1 [Compound 21]"
class_assignment = "class 1"

[[record]]
compound = "CCCCn1c[n+](Cc2ccc3ccccc3c2)c(Cl)c1Cl.[Br-] [Compound 4]"
class_assignment = "class 0"


**Query** Determine whether this compound shows IC50 lower than 10 µM (ties excluded): Clc1c(Cl)[n+](Cc2ccc3ccccc3c2)cn1CCc1ccc2ccccc2c1 [Compound 22]
**Result** class 1

**Query** Confirm or reject: IC50 of Clc1c(Cl)[n+](Cc2ccc3ccccc3c2)cn1Cc1ccccc1 [Compound 11] lies strictly below 10 µM
**Result** class 0

**Query** Please determine if [Br-].c1ccc2cc(Cn3cc[n+](Cc4ccc5ccccc5c4)c3)ccc2c1 [Compound 12] is below 10 µM in terms of IC50.
**Result** class 1

**Query** # strict comparison: is reported IC50 < 10 µM? input = CCCCCn1c[n+](Cc2ccc3ccccc3c2)c(Cl)c1Cl.[Br-] [Compound 5]
**Result** class 0

**Query** Given CCCCCCCn1c[n+](Cc2ccc3ccccc3c2)c(Cl)c1Cl [Compound 7] , is recorded IC50 strictly lower than 10 µM?
**Result** class 1

**Query** # check: IC50 < 10 µM for Clc1c(Cl)[n+](Cc2ccccc2)cn1Cc1ccccc1 [Compound 10]
**Result** class 0

---

- Test Method Notes: Water solubility from a filtered saturated solution, by weight
- Format: physicochemical
- Experimental Context: water, thermodynamic from solid
Measured solubility values are reported for all entries that follow.
Respond with the bare value in µg/mL.

Below, 2 molecules whose answers are already recorded.
[[record]]
molecule = "Cn1c(=O)c2c(ncn2Cc2ccc3ccccc3c2)n(C)c1=O [Compound 14]"
experimental_readout = "solubility"
observed = 800

[[record]]
molecule = "CCCCCCn1c[n+](Cc2ccc3ccccc3c2)c(Cl)c1Cl.[Br-] [Compound 6]"
experimental_readout = "solubility"
observed = 1400


Please examine the following record next.
**Query** Given Clc1c(Cl)[n+](CCc2cccc3ccccc23)cn1CCc1cccc2ccccc12.[Br-] [Compound 17] , respond with its solubility.
**Result** 400
